Target: Protein arginine N-methyltransferase 1 (Homo sapiens) (UniProt Q99873)
Sequence (Q99873 whole entry, looked up): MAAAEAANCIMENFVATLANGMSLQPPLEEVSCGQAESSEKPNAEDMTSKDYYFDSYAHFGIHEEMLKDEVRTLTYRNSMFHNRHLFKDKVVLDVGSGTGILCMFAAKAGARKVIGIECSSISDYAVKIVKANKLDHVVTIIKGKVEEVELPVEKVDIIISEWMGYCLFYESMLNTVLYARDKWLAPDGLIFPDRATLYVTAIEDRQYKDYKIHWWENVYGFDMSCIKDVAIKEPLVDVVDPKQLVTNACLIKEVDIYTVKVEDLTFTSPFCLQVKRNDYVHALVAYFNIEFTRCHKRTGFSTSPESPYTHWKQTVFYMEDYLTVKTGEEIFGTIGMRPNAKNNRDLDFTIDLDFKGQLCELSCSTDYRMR
Experiment: human PRMT1 activity-probe blockers – biochemical, fluorescence polarization, primary screen (AID 652257)
Details: recombinant PRMT1, activity-based probe fluorescence polarization; at 2.79 µM; active compounds read high
About 4,800 (1.3%) of roughly 370,000 compounds were called active. This excerpt belongs to a sample that is enriched for actives.
attribute measured: inhibition (%)
Just the number please, in %, no unit attached.

Before answering, review these 2 worked examples.
O=C(COC(=O)c1ccccc1SCC(=O)N1CCCC1)Nc1ccccc1OC(F)F :: 2.04
O=C(CSc1nnc(-c2cccc(Cl)c2)n1Cc1ccco1)Nc1ccc(OCc2ccccc2)cc1 :: -2.9

Ask | Given the molecule `O=C(CSc1nnc(-c2ccccc2)n1Cc1ccco1)Nc1ccccc1-c1ccccc1` , what is its reported inhibition?
Reply | 12.6

Ask | Given `S=c1[nH]c2ccccc2c2ccccc12` , state its recorded inhibition.
Reply | 13.6

Ask | Value lookup for inhibition; key = `O=C(COc1ccccc1O)NC1CCCC1`
Reply | 3.06

---

Target: Protein arginine N-methyltransferase 1 (Homo sapiens)
Assay: human PRMT1 activity-probe blockers – biochemical, fluorescence polarization, primary screen (AID 652257)
Conditions: recombinant PRMT1, activity-based probe fluorescence polarization; at 2.79 µM; active compounds read high
About 4,800 (1.3%) of roughly 370,000 compounds were called active. This is one part of a sample in which actives are shown more often than they occur.
Listing: inhibition of selected compounds
Please give a number only; it is taken to be in %.

# annotated cases, reported inhibition shown
CC(NC(=O)c1cc(=O)[nH]c2ccccc12)c1ccc(F)cc1F (stereo unspecified) :: 0.78
CCOc1ccc(-n2c(SCC(=O)Nc3cc(C)c(NC(=O)c4ccccc4)cc3OC)nnc2-c2cccs2)cc1 :: 2.3
Cc1cccc(C)c1NC(=O)C(Cl)C(=O)c1ccccc1 (stereo unspecified) :: 32

Ask | What inhibition value was documented for this compound, `Cc1c(NC(=O)CCCOc2ccccc2)cccc1[N+](=O)[O-]` ?
Reply | 2.67

Ask | Entry `O=C(NCCCn1ccnc1)/C(=C\c1ccccc1F)NC(=O)c1ccccc1` : reported inhibition = ?
Reply | -3.1

Ask | Which inhibition value is on record for `Cc1cc(C)nc(NC(=S)N2CCN(c3ccc(C(F)(F)F)cn3)CC2)c1` ?
Reply | 7.93

---

Entries annotated with measured inhibition
Target: Protein arginine N-methyltransferase 1 (Homo sapiens) (UniProt Q99873)
Test: human PRMT1 activity-probe blockers – biochemical, fluorescence polarization, primary screen (AID 652257)
Details: recombinant PRMT1, activity-based probe fluorescence polarization; at 2.79 µM; active compounds read high
The whole screen tested about 370,000 compounds, of which about 4,800 (1.3%) were called active. Many of the other results were omitted from the sample, so actives are more common in it than they were.
Give a bare numeral; the unit % is implied.

Previously resolved entries follow.
C=CCN1C(C(=O)OC)CN(Cc2cn(Cc3ccccc3)nn2)CCS1(=O)=O (configuration not stated) :: -1.05
COC(=O)[C@@]1(Sc2ccc(C)cc2)CC(=O)N(c2cccc(SC)c2)[C@@H]1c1ccccc1 :: 4.3

Ask | So what's the measured inhibition for this one? COCC(C)NC(=O)CSc1nc2nn(-c3ccccc3)c(=O)c-2c2n1CCCCC2 (configuration not stated)
Reply | 5.41

Ask | // returns reported inhibition for input `CCN(CC)CCNS(=O)(=O)c1ccc(/C=C/C(=O)O)cc1`
Reply | 4.48

Ask | inhibition for `COc1ccc(NC(=O)c2ccc(C#CC(C)(C)O)cc2)cc1` ?
Reply | 25.5

Ask | So what's the measured inhibition for this one? `Fc1ccc(COc2ccc(-c3nnco3)cc2)cc1`
Reply | 2.4

Ask | Quick one: inhibition of `Cc1sc2nc(CSCC(=O)Nc3c(Cl)cccc3Cl)[nH]c(=O)c2c1C` ?
Reply | 13.1
